Target: human ether-à-go-go-related gene (hERG) potassium channel (human);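 further: peak tail current of the secondary pulse compared with the same well before compound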
Sequence (Q12809 whole entry, looked up): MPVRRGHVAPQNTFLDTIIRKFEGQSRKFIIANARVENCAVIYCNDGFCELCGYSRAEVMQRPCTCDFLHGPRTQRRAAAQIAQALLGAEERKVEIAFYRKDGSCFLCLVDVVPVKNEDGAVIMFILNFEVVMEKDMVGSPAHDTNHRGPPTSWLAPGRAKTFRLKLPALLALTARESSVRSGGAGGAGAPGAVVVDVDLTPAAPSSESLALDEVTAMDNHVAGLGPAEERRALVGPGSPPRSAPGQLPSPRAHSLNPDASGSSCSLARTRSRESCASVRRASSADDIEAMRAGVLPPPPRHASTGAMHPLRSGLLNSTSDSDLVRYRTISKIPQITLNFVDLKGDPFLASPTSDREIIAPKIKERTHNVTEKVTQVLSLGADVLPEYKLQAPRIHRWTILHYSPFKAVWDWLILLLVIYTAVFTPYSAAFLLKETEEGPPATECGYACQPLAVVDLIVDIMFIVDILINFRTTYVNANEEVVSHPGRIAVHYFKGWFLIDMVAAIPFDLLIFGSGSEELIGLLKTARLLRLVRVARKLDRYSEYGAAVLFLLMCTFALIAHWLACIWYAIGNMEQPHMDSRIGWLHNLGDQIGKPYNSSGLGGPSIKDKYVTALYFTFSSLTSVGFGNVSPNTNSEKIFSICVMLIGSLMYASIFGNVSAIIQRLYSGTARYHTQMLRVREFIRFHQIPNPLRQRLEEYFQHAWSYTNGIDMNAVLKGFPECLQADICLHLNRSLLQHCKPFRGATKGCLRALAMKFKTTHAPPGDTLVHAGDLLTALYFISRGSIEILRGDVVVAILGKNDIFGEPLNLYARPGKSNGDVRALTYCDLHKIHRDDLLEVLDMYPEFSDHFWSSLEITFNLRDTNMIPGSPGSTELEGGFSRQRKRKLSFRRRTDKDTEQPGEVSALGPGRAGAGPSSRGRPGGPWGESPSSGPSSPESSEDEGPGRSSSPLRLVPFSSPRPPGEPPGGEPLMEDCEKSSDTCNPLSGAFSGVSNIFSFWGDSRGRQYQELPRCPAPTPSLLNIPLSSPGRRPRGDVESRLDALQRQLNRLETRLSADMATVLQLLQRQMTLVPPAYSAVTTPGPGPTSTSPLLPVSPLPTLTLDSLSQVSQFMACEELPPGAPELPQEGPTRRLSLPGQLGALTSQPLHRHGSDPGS
Assay: primary screen, population patch clamp on CHO cells stably expressing hERG; higher = less effect of the substance
Among all 310,000 compounds or so, about 14,000 (4.5%) showed an effect of 50% or more. The effect is printed as a negative number. The sample holds strong results, similar compounds and a random draw of the others, so the mix is not that of the screen.
quantity_kind: hERG current change (%, negative = inhibition) at 10uM (%)
Could you give me the number in %? Just the number is fine.

Request: Assign hERG current change (%, negative = inhibition) at 10uM to the following record: "Cc1ccc2nc(SCC(=O)Nc3cccc([N+](=O)[O-])c3)[nH]c2c1"
Response: -11.7
